The measurements presented in this section are drawn from PubChem BioAssay (NCATS).

- Tested on: Tov-21-G
- ASSAY METHOD TEXT: Primary qHTS to identify gynecologic anti-cancer compounds using libraries of approved drugs and bioactive compounds (AID 1345084); also: nearly all actives have a fitted effect of over 55% in size
- CONDITION LABEL: Gynecologic cancer cell panel viability, ATPlite luminescence, 48 h; series mostly up to 57.5 µM
Inconclusive results are not listed. Calls of active or inactive are those of the source. Calls follow the shape of the dose curve; as a rule, active = well fitted cell-killing curve with a large enough effect; inconclusive = small, poorly fitted or top-dose-only effect, or effect the other way; inactive = flat fitted curve, though single readings scatter.
I would appreciate it if you answered using one of these outcomes: y for active, n for inactive

// known answers, use as guide
1. Cc1ccc(C(N)=O)cc1Nc1nccc(-c2cn(C(C)C)c3cnccc23)n1 = y
2. Cc1ccc2nc(NC(=O)CSc3nc4c(c(=O)n3-c3ccccc3)SCC4)sc2c1 = n
3. COc1ccc(-n2nc(C(N)=O)c3c2C(=O)N(c2ccc(N4CCCCC4=O)cc2)CC3)cc1 = n
4. Nc1ncnc2c1c(-c1cnc3[nH]ccc3c1)nn2C1CCCC1 = y
5. COc1ccc2c(c1)CC[C@@H](CN(C)CC(=O)O)[C@H]2c1ccccc1 = n

Enquiry: Called result for `CCCCCN(CCC12CC3CC(CC(C3)C1)C2)C(=O)NCCCc1ccncc1`
Return: n

Enquiry: Called result for `Cc1ccc(C(=O)Nc2ccc(CN3CCN(C)CC3)c(C(F)(F)F)c2)cc1C#Cc1cnc2cccnn12`
Return: y

Enquiry: Called result for `CS(=O)(=O)c1ccc(-c2cnc(N)c(C(=O)Nc3ccccc3)n2)cc1`
Return: y

Enquiry: Called result for `Cc1cnc(Nc2ccc(F)cc2Cl)nc1-c1c[nH]c(C(=O)N[C@H](CO)c2cccc(Cl)c2)c1`
Return: y

Enquiry: Called result for `N#CCNC(=O)c1ccc(-c2ccnc(Nc3ccc(N4CCOCC4)cc3)n2)cc1`
Return: y

Enquiry: Called result for `CC1(C)CCC(c2ccc(Cl)cc2)=C(CN2CCN(c3ccc(C(=O)NS(=O)(=O)c4ccc(N[C@H](CCN5CCOCC5)CSc5ccccc5)c(S(=O)(=O)C(F)(F)F)c4)cc3)CC2)C1`
Return: n

Enquiry: Called result for `CC(C)c1noc(N2CCC(COc3ccc(-c4ccc(S(C)(=O)=O)cc4)nc3)CC2)n1`
Return: n

Enquiry: Called result for `CC(C)c1cc(C(=O)N2Cc3ccc(CN4CCN(C)CC4)cc3C2)c(O)cc1O`
Return: y

Enquiry: Called result for `Cc1ccc(CN2CCNCC2)cc1NC(=O)CNc1ccc(F)c(F)c1`
Return: n

Enquiry: Called result for `C#Cc1cccc(Nc2ncnc3cc(OC)c(OCCCCCCC(=O)NO)cc23)c1`
Return: y

Enquiry: Called result for `CN(C)CC(C)(C)CNc1nn2c(-c3ccccc3)nnc2cc1C1CCC1`
Return: n

Enquiry: Called result for `Cc1cn2cc(C(=O)N(C)CCO)cc(N[C@@H]3CCOc4cccc(C)c43)c2n1`
Return: n

Enquiry: Called result for `C=CC(=O)N1CCC[C@@H](n2nc(-c3ccc(Oc4ccccc4)cc3)c3c(N)ncnc32)C1`
Return: n

Enquiry: Called result for `Cc1c(CN2CCN(S(C)(=O)=O)CC2)sc2c(N3CCOCC3)nc(-c3cnc(N)nc3)nc12`
Return: y

Enquiry: Called result for `CNC(=O)c1ccc(N2C(=S)N(c3cnc(C#N)c(C(F)(F)F)c3)C(=O)C23CCC3)cc1F`
Return: n

Enquiry: Called result for `Nc1ccccc1NC(=O)c1ccc(CNc2nccc(-c3cccnc3)n2)cc1`
Return: y

Enquiry: Called result for `NC(=O)c1cccc2cn(-c3ccc([C@@H]4CCCNC4)cc3)nc12`
Return: n

---

- ASSAY METHOD TEXT: Quantitative High-Throughput drug screen in 47 multiple myeloma cell lines against the NCATS MIPE library collection: MOLP8_DSMZ cell viability assay (AID 1918977); also: potency is read from the fitted curve at half-maximal effect; nearly all actives have a fitted effect of over 45% in size
- CONDITION LABEL: MOLP8 myeloma viability, CellTiter-Glo ATP luminescence, 48 h; series mostly up to 45.8 µM
Results filed as inconclusive are left out. Active and inactive are the calls of the source. Calls come from the whole dose curve; as a rule, active = well fitted cell-killing curve with a large enough effect; inconclusive = small, poorly fitted or top-dose-only effect, or effect the other way; inactive = no such curve, though single readings can be large or run the other way.
EXPERIMENTAL READOUT: Potency

Worked set:
1. O=C(O)c1ccc2c(c1)nc(Nc1cccc(Cl)c1)c1ccncc12 = 10.5 µM (active)
2. C#Cc1cccc(Nc2ncnc3cc(OC)c(OCCCCCCC(=O)NO)cc23)c1 = 0.166 µM (active)
3. CC(C)c1ccc(Cn2ccc3c4c(N)nc(NC5CC5)nc4ccc32)cc1 = 13.2 µM (active)

Turning now to a further compound:
Lookup result for `CC(C)c1ccccc1Cc1cc(C(=O)Nc2ccc(S(=O)(=O)c3ccccc3C(C)(C)C)cc2)c(O)c(O)c1O` ; measured Potency: 13.2 µM (active)

---

- ASSAY METHOD TEXT: qHTS of pediatric cancer cell lines to identify multiple opportunities for drug repurposing: Primary screen for TC32 cells (AID 1347089); also: nearly all actives have a fitted effect of over 60% in size
- CONDITION LABEL: TC32 Ewing sarcoma viability, CellTiter-Glo luminescence, 48 h; series mostly up to 45.8 µM
Results filed as inconclusive are left out. Active and inactive are the calls of the source. The call rests on the fitted dose curve; in most records, active means well fitted cell-killing curve with a large enough effect; inconclusive means small, poorly fitted or top-dose-only effect; inactive means flat fitted curve, though single readings scatter.
I would appreciate it if you answered using one of these outcomes: t = active, f = inactive

// known answers, use as guide
1. CCCNC(=O)Nc1ccc(Oc2ncnc3cc(OC)c(OC)cc23)cc1Cl = f
2. CCc1cc2c(cc1N1CCC(N3CCOCC3)CC1)C(C)(C)c1[nH]c3cc(C#N)ccc3c1C2=O = f
3. Cc1cc(Nc2cc(N3CCN(C)CC3)nc(C=Cc3ccccc3)n2)n[nH]1 = t
4. CNC(=O)c1cc(Oc2ccc(NC(=O)Nc3cc(C(C)(C)C)nn3-c3ccc4ncccc4c3)c(F)c2)ccn1 = f

We next turn to a different molecule, shown below.
Enquiry: Called result for `Nc1nc(-c2nn(Cc3ccccc3F)c3ncccc23)nc(N)c1N1CCOCC1`
Return: f

---

# Potency listing for each entry below
- ASSAY METHOD TEXT: Quantitative High-Throughput drug screen in 47 multiple myeloma cell lines against the NCATS MIPE library collection: INA6_PLB cell viability assay (AID 1918965; also: potency is read from the fitted curve at half-maximal effect; nearly all actives have a fitted effect of over 55% in size)
- CONDITION LABEL: INA6 myeloma viability, CellTiter-Glo ATP luminescence, 48 h; series mostly up to 45.8 µM
Inconclusive results are not listed. Activity calls are given as the source filed them. Calls come from the whole dose curve; as a rule, active = well fitted cell-killing curve with a large enough effect; inconclusive = small, poorly fitted or top-dose-only effect, or effect the other way; inactive = no such curve, though single readings can be large or run the other way.

1. Cc1nc2ccc(CN(C)c3ccc(C(=O)N[C@@H](CCC(=O)O)C(=O)O)s3)cc2c(=O)[nH]1 = 41.8 nM (active)

Lookup result for CCOC(=O)C1=C(C)NC2=C(C(=O)CC(C)(C)C2)C1c1ccc(-c2ccccc2)cc1 (stereo not given) ; measured Potency: 26400 nM (active)

---

- Test system: CASKI
- ASSAY METHOD TEXT: Primary qHTS to identify gynecologic anti-cancer compounds using libraries of approved drugs and bioactive compounds (AID 1345084); also: nearly all actives have a fitted effect of over 55% in size
- CONDITION LABEL: Gynecologic cancer cell panel viability, ATPlite luminescence, 48 h; series mostly up to 57.5 µM
Results filed as inconclusive are left out. Active and inactive are the calls of the source. Calls follow the shape of the dose curve; as a rule, active = well fitted cell-killing curve with a large enough effect; inconclusive = small, poorly fitted or top-dose-only effect, or effect the other way; inactive = flat fitted curve, though single readings scatter.
I would appreciate it if you answered using one of these outcomes: Yes = active, No = inactive

// known answers, use as guide
1) CNC(=O)c1ccccc1Nc1nc(Nc2ccc(N3CCOCC3)cc2OC)ncc1Cl = Yes
2) NC1(Cc2ccc(Cl)cc2)CCN(c2ncnc3[nH]ccc23)CC1 = No

We next turn to a different compound, shown below.
Enquiry: Called result for `COc1cccc(Nc2c(C(N)=O)cnc3c(C)cc(S(=O)(=O)c4cccc(C(=O)N(C)C)c4)cc23)c1`
Return: No

---

- ASSAY METHOD TEXT: Quantitative High-Throughput drug screen in 47 multiple myeloma cell lines against the NCATS MIPE library collection: OPM2_DSMZ cell viability assay (AID 1919872); also: potency is read from the fitted curve at half-maximal effect; nearly all actives have a fitted effect of over 30% in size
- CONDITION LABEL: OPM2 myeloma viability, CellTiter-Glo ATP luminescence, 48 h; series mostly up to 45.8 µM
- Excerpt: PI: Beverly A. Mock Ph.D. Laboratory of Cancer Biology and Genetics, Center for Cancer Research, National Cancer Institute, National Institute of Health, Bethesda, Maryland […] 5; Detector; 425V; Luminescence; Viewlux PerkinElmer. […] 1. […] Briefly, the corresponding myeloma cell lines were screened in 1,536-well plates with 500 cells, 5-uL per well for inhibition of cell viability (assessed by measuring ATP levels with CellTiterGlo). […]
Results filed as inconclusive are left out. Active and inactive are the calls of the source. Calls follow the shape of the dose curve; as a rule, active = well fitted cell-killing curve with a large enough effect; inconclusive = small, poorly fitted or top-dose-only effect, or effect the other way; inactive = no such curve, though single readings can be large or run the other way.
I would appreciate it if you answered using one of these outcomes: active, inactive

Enquiry: Called result for `Cc1cc(Nc2nc(N[C@@H](C)c3ccc(F)cc3)c(C#N)cc2F)n[nH]1`
Return: active

Enquiry: Called result for `CC(C)c1ccc(Cn2ccc3c4c(N)nc(NC5CC5)nc4ccc32)cc1`
Return: active

Enquiry: Called result for `Cc1cc(Nc2cc(N3CCN(C)CC3)nc(Sc3ccc(NC(=O)C4CC4)cc3)n2)n[nH]1`
Return: active

Enquiry: Called result for `CC(C)(C)c1cc(NC(=O)Nc2ccc(-c3cn4c(n3)sc3cc(OCCN5CCOCC5)ccc34)cc2)no1`
Return: active

Enquiry: Called result for `O=C(O)c1ccc2cc(-c3ccc(O)c(C45CC6CC(CC(C6)C4)C5)c3)ccc2c1`
Return: active
